System: coronavirus-induced pulmonary fibrosis model (HcoV-OC43)
Test: Coronavirus-induced pulmonary fibrosis model
Format: in vivo, C57BL/6 mice
Details: serum; HcoV-OC43 + bleomycin; 120 mg/kg/d intragastric, 14 days, from two weeks after model
Consider the following compounds and their measured NF-κB readings.
VALUE KIND: NF-κB (pg/mL)

COc1ncnc2c1ncn2C(C)C	25.6
CC(C)Oc1ncnc2c1N(C(C)C)CN2C(C)C	25.3
COC(=O)c1ccc2c(c1)NC(=O)/C2=C(\Nc1ccc(N(C)C(=O)CN2CCN(C)CC2)cc1)c1ccccc1 [Nintedanib, reference compound]	521.3
O=c1[nH]cnc2[nH]cnc12 [Hypoxanthine analogue A, reference compound]	719.1
CC(C)Oc1ncnc2ncn(C(C)C)c12	26.7
CC(C)Oc1ncnc2c1ncn2C [Hypoxanthine analogue B, reference compound]	730.1
CC(C)Oc1ncnc2c1ncn2C(C)C	23.7
CC(C)Oc1ncnc2nc[nH]c12	25.9
CCC(=O)Oc1ncnc2c1ncn2C(C)C	27.7
CC(C)Oc1ncnc2[nH]cnc12	23.9
CCCOc1ncnc2c1ncn2C(C)C	24.4
CCOc1ncnc2c1ncn2C(C)C	28.3
CC(C)n1cnc2nc[nH]c(=O)c21	29.3
CC(C)n1cnc2c(=O)[nH]cnc21	24.6
CC(=O)Oc1ncnc2c1ncn2C(C)C	25.1
